- System: HCV genotype 1b replicon
- assay info: HCV replicon assay in Zluc cells (CES1 study)
- Type: cell-based
- conditions used: Hepatitis C virus, 72 hours
pEC50: −log10 of the molar value.
metric: pEC50

Entry CC(C)OC(=O)[C@H](C)N[P@](=O)(OC[C@H]1O[C@@H](n2ccc(=O)[nH]c2=O)[C@](C)(F)[C@@H]1O)Oc1ccccc1 [Sofosbuvir, sofosbuvir] — recorded pEC50 = 6.00 to 6.60

----------
- assay info: Cytotoxicity in Zluc cells (CES1 study)
- Format: cell-based
- conditions used: human
metric: CC50

Entry CC(C)OC(=O)[C@H](C)N[P@](=O)(OC[C@H]1O[C@@H](n2ccc(=O)[nH]c2=O)[C@](C)(F)[C@@H]1O)Oc1ccccc1 [Sofosbuvir, sofosbuvir] — recorded CC50 = > 50 µM

----------
- Tested on: HCV genotype 1b replicon
- assay info: HCV replicon assay (Zluc luciferase)
- Format: cell-based
- conditions used: read-out: HCV Replicon EC50; Zluc cells, 72 hours
pEC50: −log10 of the molar value.
metric: pEC50

Measured pEC50 (HCV genotype 1b replicon), entry CCOC(=O)COP(=O)(OC[C@H]1O[C@@H](n2ccc(=O)[nH]c2=O)[C@](C)(Cl)[C@@H]1O)Oc1ccccc1 (single isomer, unassigned) [Compound 72 Diastereomer 2] : < 5.00

----------
- assay info: Cytotoxicity in Zluc cells transfected with human CES1
- Type: cell-based
- conditions used: Zluc cells transiently transfected with human CES1
metric: CC50

Entry "CC(C)OC(=O)[C@H](C)N[P@](=O)(OC[C@H]1O[C@@H](n2ccc(=O)[nH]c2=O)[C@](C)(F)[C@@H]1O)Oc1ccccc1" — recorded CC50 = > 50 µM

----------
- assay info: Plasma nucleoside pharmacokinetics after single oral dose in CD-1 mice;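 note: pmol·h/mL plasma normalized to a 1 µmol/kg dose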
- Type: in vivo
- conditions used: single oral dose 10 mg/kg in PEG 200

compound	Ms Plasma nucleoside AUC
CC(C)OC(=O)[C@@H](C)NP(=O)(OC[C@H]1O[C@@H](n2ccc(=O)[nH]c2=O)[C@](C)(Cl)[C@@H]1O)Oc1ccccc1 (single isomer, unassigned; diastereomer 2) [Compound 40i Diastereomer 2]	+++ (500 < +++ ≤ 1500)
CC(C)(CO)C(=O)SCCOP(=O)(NCc1ccccc1)OC[C@H]1O[C@@H](n2ccc(=O)[nH]c2=O)[C@](C)(Cl)[C@@H]1O (single isomer, unassigned; diastereomer 2) [Compound 54 Diastereomer 2]	+++ (500 < +++ ≤ 1500)
CC(C)OC(=O)[C@@H](C)NP(=O)(OC[C@H]1O[C@@H](n2ccc(=O)[nH]c2=O)[C@](C)(Cl)[C@@H]1O)SC1CCCC1 (single isomer, unassigned; diastereomer 1) [Compound 206i Diastereomer 1]	+++ (500 < +++ ≤ 1500)

----------
- assay info: Liver triphosphate pharmacokinetics after single oral dose in CD-1 mice;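 note: pmol·h/g liver normalized to a 1 µmol/kg dose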
- Type: in vivo
- conditions used: single oral dose 10 mg/kg in PEG 200
metric: Ms Liver TP AUC

compound	Ms Liver TP AUC
CC(C)C(=O)OC[C@H](C)NP1(=O)OC[C@H]2O[C@@H](n3cnc4c(N)ncnc43)[C@](C)(Cl)[C@@H]2O1 (single isomer, unassigned; diastereomer 2) [Compound 95i Diastereomer 2]	++ (150 < ++ ≤ 500)
CC(C)(C)C(=O)SCCOP1(=O)OC[C@H]2O[C@@H](n3ccc(N)nc3=O)[C@](C)(Cl)[C@@H]2O1 (single isomer, unassigned) [Compound 61 Diastereomer 2]	+++ (500 < +++ ≤ 1500)
CCCCOC(=O)[C@H](C)NP(=O)(OC[C@H]1O[C@@H](n2ccc(=O)[nH]c2=O)[C@](C)(Cl)[C@@H]1O)Oc1ccccc1 (single isomer, unassigned; diastereomer 1) [Compound 202ii Diastereomer 1]	+++ (500 < +++ ≤ 1500)
CC(C)OC(=O)[C@@H](C)NP(=O)(OC[C@H]1O[C@@H](n2ccc(=O)[nH]c2=O)[C@](C)(Cl)[C@@H]1O)SC1CCCC1 (single isomer, unassigned; diastereomer 2) [Compound 206i Diastereomer 2]	+++ (500 < +++ ≤ 1500)
CCOC(=O)[C@H](CC(C)C)NP(=O)(OC[C@H]1O[C@@H](n2ccc(=O)[nH]c2=O)[C@](C)(Cl)[C@@H]1O)Oc1ccccc1 (single isomer, unassigned; diastereomer 2) [Compound 204ii Diastereomer 2]	++ (150 < ++ ≤ 500)

Dear colleague, could you please provide Ms Liver TP AUC for the compounds listed below?
1. CC(C)OC(=O)[C@H](C)NP(=O)(OC[C@H]1O[C@@H](n2ccc(=O)[nH]c2=O)[C@](C)(Cl)[C@@H]1O)Oc1ccccc1 (single isomer, unassigned) [Compound 40ii Diastereomer 2]
2. CCCCOC(=O)[C@H](C)NP(=O)(OC[C@H]1O[C@@H](n2ccc(=O)[nH]c2=O)[C@](C)(Cl)[C@@H]1O)Oc1ccccc1 (single isomer, unassigned; diastereomer 2) [Compound 202ii Diastereomer 2]

1. +++ (500 < +++ ≤ 1500)
2. +++ (500 < +++ ≤ 1500)
